src = patent US20160039802A1

TESTED_SYSTEM: Mutant IDH1 R132H (Homo sapiens, UniProt O75874, R132H)
Construct: His6 with PreScission site (N, cleaved yes)
Sequence (O75874 whole entry R132H): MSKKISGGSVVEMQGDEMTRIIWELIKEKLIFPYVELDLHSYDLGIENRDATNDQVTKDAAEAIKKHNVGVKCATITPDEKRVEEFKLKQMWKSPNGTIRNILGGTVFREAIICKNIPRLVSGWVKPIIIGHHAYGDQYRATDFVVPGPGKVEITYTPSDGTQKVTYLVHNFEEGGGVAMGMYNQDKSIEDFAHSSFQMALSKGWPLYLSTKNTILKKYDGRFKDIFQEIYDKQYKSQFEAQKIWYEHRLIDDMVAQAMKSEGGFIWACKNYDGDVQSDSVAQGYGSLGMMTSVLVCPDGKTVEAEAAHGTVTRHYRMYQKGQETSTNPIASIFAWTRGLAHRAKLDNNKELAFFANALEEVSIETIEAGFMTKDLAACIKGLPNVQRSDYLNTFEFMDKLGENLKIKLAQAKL
PROCEDURE_TEXT: Mutant IDH1 biochemical assay: LC-MS detection of 2-HG; further: mIDH R132H 0.25 nM, 5 µM NADPH
EXPERIMENTAL_PARAMETERS: mIDH R132H […], 5 uM NADPH, 100 uM alpha-KG, 45 minutes incubation; range where run multiple times
From the text: Mutant IDH1 biochemical Sssay: LC-MS Detection of 2-HG.
pIC50: −log10 of the molar value.
In this section we review reported pIC50 values for a set of compounds.
ENDPOINT_NAME: pIC50

>>> numeric_value("C[C@H](Nc1nc(Cl)cc(N2C(=O)OC[C@@H]2C2CC2)n1)c1ccc(-c2cnn(C)c2)cc1F")
7.24
>>> numeric_value("C[C@H](Nc1ncc(F)c(N2C(=O)OCC2(C)C2CC2)n1)c1ccc(CN2CCC(N(C)C)CC2)c(F)c1 (some centres unmarked)")
6.02
>>> numeric_value("C[C@H](Nc1ncc(F)c(N2C(=O)OCC2(C)C2CC2)n1)c1ccc(CN2CCC(C)(N)CC2)cc1F (single isomer, unassigned) [Example 62]")
5.79
>>> numeric_value("C[C@H](Nc1nccc(N2C(=O)OCC2(C)C2CC2)n1)c1ccc(F)cc1 (single isomer, unassigned) [Example 45]")
6.72
>>> numeric_value("C[C@H](Nc1ncc(F)c(N2C(=O)OCC2(C)C2CC2)n1)c1ccc(CN2CCC(C)(N)CC2)c(F)c1 (single isomer, unassigned) [Example 59]")
6.04
>>> numeric_value("C[C@H](Nc1nccc(N2C(=O)OCC2(C)C2CC2)n1)c1ccc(CN2CCN(C)C(C)(C)C2)cc1 (single isomer, unassigned) [Example 55]")
7.11
>>> numeric_value("C[C@H](Nc1nccc(N2C(=O)OC[C@]2(C)C2CC2)n1)c1ccc(CN2CCC(N(C)C)CC2)cc1F")
6.76
>>> numeric_value("CNC1CCN(Cc2ccc([C@H](C)Nc3nccc(N4C(=O)OC[C@]4(C)C4CC4)n3)cc2F)CC1")
6.93
>>> numeric_value("C[C@H](Nc1nccc(N2C(=O)OC[C@]2(C)C2CC2)n1)c1ccc(CN2CCC(C)(N(C)C)CC2)c(F)c1")
7.54
>>> numeric_value("C[C@H](Nc1nccc(N2C(=O)OC[C@]2(C)C2CC2)n1)c1ccc(CN2CCC(C)(N)CC2)c(F)c1")
6.82
>>> numeric_value("CC(Nc1nccc(N2C(=O)OC[C@]2(C)C2CC2)n1)c1nc(-c2ccc(Cl)cc2)no1 (single isomer, unassigned) [Example 49]")
5.60
>>> numeric_value("CC(Nc1nccc(N2C(=O)OC[C@]2(C)C2CC2)n1)c1nc(-c2ccc(Cl)c(OC(F)(F)F)c2)no1 (single isomer, unassigned) [Example 63]")
5.65
>>> numeric_value("Cc1cc(N2C(=O)OC[C@@H]2C2CC2)nc(N[C@@H](C)c2nc(-c3ccc(Cl)cc3)no2)n1")
7.33
>>> numeric_value("C[C@H](Nc1nccc(N2C(=O)OCC2(C)C2CC2)n1)c1ccc(F)cc1 (single isomer, unassigned) [Example 46]")
6.10
>>> numeric_value("C[C@H](Nc1nccc(N2C(=O)OCC2(C)C2CC2)n1)c1ccc(CN2CCN(C)CC2)cc1 (single isomer, unassigned) [Example 47]")
6.15
>>> numeric_value("C[C@H](Nc1nccc(N2C(=O)OC[C@]2(C)C2CC2)n1)c1ccc(CN2CCC(C)(O)CC2)c(F)c1")
6.57
>>> numeric_value("C[C@H](Nc1ncc(F)c(N2C(=O)OCC2(C)C2CC2)n1)c1ccc(CN2CCC(N(C)C)CC2)cc1F (single isomer, unassigned) [Example 58]")
5.57
>>> numeric_value("Cc1cc(N2C(=O)OC[C@@H]2C2CC2)nc(N[C@@H](C)c2cnc(-c3ccc(Cl)cc3)s2)n1")
7.36
>>> numeric_value("Cc1cc(N2C(=O)OC[C@@H]2C2CC2)nc(N[C@@H](C)c2cc(-c3ccc(Cl)cc3)on2)n1")
7.64
>>> numeric_value("C[C@H](Nc1nc(Cl)cc(N2C(=O)OC[C@@H]2C2CC2)n1)c1cc(F)c(-c2cnn(C)c2)cc1F")
7.80
>>> numeric_value("C[C@H](Nc1nccc(N2C(=O)OC[C@]2(C)C2CC2)n1)c1ccc(CN2CCC(O)(C(F)(F)F)CC2)cc1F")
7.96

====

TESTED_SYSTEM: IDH1 (R132H) mutant (Homo sapiens, UniProt O75874, R132H)
Construct: His6 with PreScission site (N, cleaved yes)
Sequence (O75874 whole entry R132H): as above
PROCEDURE_TEXT: Fluorescence biochemical assay (NADPH oxidation)
EXPERIMENTAL_PARAMETERS: mIDH R132H 10 nM, 10 μM NADPH, 100 μM α-KG; range where run multiple times
Method: The IDH1 (R132H) mutant catalyzes the reduced form of NADP+ (NADPH) and α-ketoglutarate (α-KG) to form nicotinamide adenine dinucleotide phosphate (NADP+) and R(−)-2-hydroxyglutarate (2HG). […] Reactions were monitored using the Perkin-Elmer Envision, Model 2101. […] The final reaction mixture contained 2.5% DMSO and test compounds with concentrations ranging 0.0000008-25 μM. The IDH1 (R132H) enzyme was used at a final concentration of 10 nM. […]
pIC50: −log10 of the molar value.
Label Yes when pIC50 is at or above 7; otherwise label No.

>>> assigned_category("C[C@H](Nc1nc(Cl)cc(N2C(=O)OC[C@@H]2C2CC2)n1)c1nnc(-c2ccc(Cl)cc2)s1")
"Yes"
>>> assigned_category("C[C@H](Nc1nc(Cl)cc(N2C(=O)OC[C@@H]2C2CC2)n1)c1cn(-c2ccc(Cl)cc2)cn1")
"No"
>>> assigned_category("C[C@H](Nc1nc(Cl)cc(N2C(=O)OC[C@@H]2C2CC2)n1)c1cnn(-c2ccc(Cl)cc2)c1")
"Yes"
>>> assigned_category("C[C@H](Nc1nc(Cl)cc(N2C(=O)OC[C@@H]2C2CC2)n1)c1cnc(N2CCOCC2)s1")
"No"
>>> assigned_category("C[C@H](Nc1nc(Cl)cc(N2C(=O)OC[C@@H]2C2CC2)n1)c1ccccc1")
"No"
>>> assigned_category("C[C@H](Nc1nc(Cl)cc(N2C(=O)OC[C@@H]2C2CC2)n1)c1ccc(C(C)(C)F)cc1F")
"No"
>>> assigned_category("C[C@H](Nc1nccc(N2C(=O)OC[C@]2(C)C2CC2)n1)c1ccc(CN2CCC(N3CCOCC3)CC2)c(F)c1")
"Yes"

====

TESTED_SYSTEM: IDH1 (R132H) mutant (Homo sapiens, UniProt O75874, R132H)
Construct: His6 with PreScission site (N, cleaved yes)
PROCEDURE_TEXT: Fluorescence biochemical assay (NADPH oxidation)
EXPERIMENTAL_PARAMETERS: mIDH R132H 10 nM, 10 μM NADPH, 100 μM α-KG; range where run multiple times
IC50 values by entry
ENDPOINT_NAME: IC50 (nM)

>>> numeric_value("C[C@H](Nc1ncc(F)c(N2C(=O)OCC2(C)C2CC2)n1)c1ccc(CN2CCC(C)(N)CC2)c(F)c1 (single isomer, unassigned) [Example 60]")
584
>>> numeric_value("Cc1ccc(-c2ncc([C@H](C)Nc3nc(C)cc(N4C(=O)OC[C@@H]4C4CC4)n3)s2)cn1")
191
>>> numeric_value("C[C@H](Nc1ncc(F)c(N2C(=O)OC[C@@H]2C2CC2)n1)c1ccccc1")
1190
>>> numeric_value("Cc1cc(N2C(=O)OC[C@@H]2C2CC2)nc(N[C@H](C)c2cn(-c3ccc(Cl)cc3)nn2)n1")
323

====

TESTED_SYSTEM: IDH1 (R132H) mutant (Homo sapiens, UniProt O75874, R132H)
Construct: His6 with PreScission site (N, cleaved yes)
PROCEDURE_TEXT: Fluorescence biochemical assay (NADPH oxidation)
EXPERIMENTAL_PARAMETERS: mIDH R132H 10 nM, 10 μM NADPH, 100 μM α-KG; range where run multiple times
Experimental: The IDH1 (R132H) mutant catalyzes the reduced form of NADP+ (NADPH) and α-ketoglutarate (α-KG) to form nicotinamide adenine dinucleotide phosphate (NADP+) and R(−)-2-hydroxyglutarate (2HG). […] Reactions were monitored using the Perkin-Elmer Envision, Model 2101. […] The final reaction mixture contained 2.5% DMSO and test compounds with concentrations ranging 0.0000008-25 μM. The IDH1 (R132H) enzyme was used at a final concentration of 10 nM. […]
Listing: log10(IC50) of selected compounds
ENDPOINT_NAME: log10(IC50) (log10 of the value in nM)

>>> numeric_value("Cc1cc(N2C(=O)OC[C@@H]2C2CC2)nc(N[C@@H](C)c2cnc(-c3ccc(Cl)cc3)s2)n1")
2.02
>>> numeric_value("C[C@H](Nc1nccc(N2C(=O)OC[C@@H]2C2CC2)n1)c1cnc(OCC(F)(F)F)c(Cl)c1")
2.57
>>> numeric_value("C[C@H](Nc1nccc(N2C(=O)OC[C@@H]2C2CC2)n1)c1cnc(-c2ccc(C(F)(F)F)nc2)s1")
1.69
>>> numeric_value("C[C@H](Nc1nccc(N2C(=O)OC[C@]2(C)C2CC2)n1)c1ccc(CN2CCC(N3CCOCC3)CC2)cc1")
1.98
>>> numeric_value("C[C@H](Nc1nc(Cl)cc(N2C(=O)OC[C@@H]2C2CC2)n1)c1ccc(-c2cnn(C)c2)cc1F")
1.65
>>> numeric_value("Cc1cc(-c2cnc(C(C)Nc3nccc(N4C(=O)OC[C@]4(C)C4CC4)n3)nc2)ccc1F (single isomer, unassigned)")
1.56
>>> numeric_value("C[C@H](Nc1nccc(N2C(=O)OC[C@@H]2C2CC2)n1)c1ccccc1")
3.14
>>> numeric_value("C[C@H](Nc1nccc(N2C(=O)OC[C@]2(C)C2CC2)n1)c1ccc(CN2CCC(O)(C(F)(F)F)CC2)cc1F")
1.20
>>> numeric_value("C[C@H](Nc1ncc(F)c(N2C(=O)OCC2(C)C2CC2)n1)c1ccc(CN2CCC(C)(N)CC2)cc1F (single isomer, unassigned) [Example 61]")
2.37
>>> numeric_value("Cc1cc(N2C(=O)OC[C@@H]2C2CC2)nc(N[C@@H](C)c2cn(-c3ccc(Cl)cc3)cn2)n1")
1.24
>>> numeric_value("C[C@H](Nc1nc(Cl)cc(N2C(=O)OC[C@@H]2C2CC2)n1)c1nc(-c2ccc(Cl)cc2)no1")
1.43
>>> numeric_value("C[C@H](Nc1ncc(F)c(N2C(=O)OC[C@@H]2C2CC2)n1)c1nc(-c2ccc(Cl)cc2)no1")
2.09
>>> numeric_value("C[C@H](Nc1ncc(F)c(N2C(=O)OC[C@@H]2C2CC2)n1)c1cnc(OCC(F)(F)F)c(Cl)c1")
3.08
>>> numeric_value("C[C@H](Nc1nccc(N2C(=O)OC[C@@H]2C2CC2)n1)c1ccc(CN2CCC(N(C)C)C(F)(F)C2)c(F)c1 (some centres unmarked)")
1.40
